This collection of values is drawn from patent US20230414702A1.

- Experimental target: T1, CD47 receptor (UniProt Q08722 19-323, limits assumed)
- T1 construct: whole, on cells; The assays used a whole MEC-1 cell membrane preparation, not purified CD47; also called membrane preparation from MEC-1 cells
- T1 sequence (Q08722 19-323 limits assumed): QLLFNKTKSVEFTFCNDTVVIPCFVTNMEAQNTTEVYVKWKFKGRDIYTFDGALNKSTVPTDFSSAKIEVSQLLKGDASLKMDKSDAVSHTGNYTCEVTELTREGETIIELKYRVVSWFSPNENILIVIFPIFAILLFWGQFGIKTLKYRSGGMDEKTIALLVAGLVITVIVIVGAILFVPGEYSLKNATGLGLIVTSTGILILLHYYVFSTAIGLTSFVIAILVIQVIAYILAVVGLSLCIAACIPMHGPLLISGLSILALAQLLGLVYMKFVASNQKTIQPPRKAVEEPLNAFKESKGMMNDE
- Test protocol: binding to MEC-1 membrane preparation; method not named in Table 3 (same value as the OR column of Table 2)
Readout kind: pKd
Please report pKd as the negative decimal logarithm of the molar concentration, giving only the number.

Prompt line: Consider the binder shown here: KRFYVVMWKK (Decapeptide that mimics the C-terminal domain of TSP-1) [4N1K] What is its recorded pKd?
Response line: 4.72

Prompt line: Consider the binder shown here: KRFYVVMWKK ((D)-Lys at position 1 and (D)-Lys at position 10, also called 4(PKHB1)) [PKHB1, H-(D)K R F Y V V M W K (D)K-OH] What is its recorded pKd?
Response line: 4.37
